Test system: L6
Experiment: Cytotoxicity against rat L6 cells after 70 hrs by Alamar Blue-based assay
Type: cell-based
Conditions: L6, 70 h
IC50 for assorted molecules
assay readout: IC50 (µg/mL)

INSERT INTO assay_data (molecule, unit_spec, prefix_operator, observed_result) VALUES
  ('COc1cc(NC(C)CCCNC(=O)Nc2cccc(F)c2)c2ncccc2c1 (centres undefined)', 'µg/mL', '=', 9.18),
  ('COc1cc(NC(C)CCCNC(=O)NNC(=O)NC(c2ccccc2)(c2ccccc2)c2ccccc2)c2ncccc2c1 (centres undefined)', 'µg/mL', '>', 65),
  ('COc1cc(NC(C)CCCNC(=O)/C=C/c2ccccc2F)c2ncccc2c1 (centres undefined)', 'µg/mL', '=', 1.5),
  ('COc1cc([C@@H]2c3cc4c(cc3[C@H](O)[C@H]3COC(=O)[C@H]23)OCO4)cc(OC)c1OC [PODOFILOX]', 'µg/mL', '=', 0.007),
  ('COc1cc(NC(C)CCCNC(=O)/C=C/c2ccc(OC)c(OC)c2)c2ncccc2c1 (centres undefined)', 'µg/mL', '>', 100),
  ('COc1cc(NC(C)CCCNC(=O)NNC(=O)Nc2cccc(Br)c2)c2ncccc2c1 (centres undefined)', 'µg/mL', '=', 20),
  ('COc1cc(NC(C)CCCNC(=O)Nc2cccc(O)c2)c2ncccc2c1 (centres undefined)', 'µg/mL', '=', 38),
  ('COc1cc(NC(C)CCCNC(=O)N(C)C(c2ccccc2)c2ccccc2)c2ncccc2c1 (centres undefined)', 'µg/mL', '=', 80.5),
  ('COc1cc(NC(C)CCCNC(=O)Nc2ccc(F)cc2)c2ncccc2c1 (centres undefined)', 'µg/mL', '=', 9.3),
  ('COc1cc(NC(C)CCCNC(=O)NNC(=O)Nc2ccc(Cl)c(C(F)(F)F)c2)c2ncccc2c1 (centres undefined)', 'µg/mL', '=', 30),
  ('COc1cc(NC(C)CCCNC(=O)/C(C)=C/c2ccccc2)c2ncccc2c1 (centres undefined)', 'µg/mL', '>', 100),
  ('COc1cc(NC(C)CCCNC(=O)Nc2cccc(C(F)(F)F)c2)c2ncccc2c1 (centres undefined)', 'µg/mL', '=', 150),
  ('COc1cc(NC(C)CCCNC(=O)Nc2ccc(O)cc2)c2ncccc2c1 (centres undefined)', 'µg/mL', '=', 14.8),
  ('COc1cc(NC(C)CCCNC(=O)/C=C/c2cc(OC)c(OC)c(OC)c2)c2ncccc2c1 (centres undefined)', 'µg/mL', '>', 100),
  ('COc1ccc(/C(=N/NC(=O)NCCCC(C)Nc2cc(OC)cc3cccnc23)c2ccccc2)cc1 (centres undefined)', 'µg/mL', '>', 100),
  ('COc1cc(NC(C)CCCNC(=O)Nc2cccc(Cl)c2)c2ncccc2c1 (centres undefined)', 'µg/mL', '=', 10),
  ('COc1ccc(C(=NNC(=O)NCCCC(C)Nc2cc(OC)cc3cccnc23)c2ccc(OC)cc2)cc1 (centres undefined)', 'µg/mL', '>', 100),
  ('COc1ccc(/C=C/C(=O)NCCCC(C)Nc2cc(OC)cc3cccnc23)cc1 (centres undefined)', 'µg/mL', '>', 100),
  ('COc1cc(NC(C)CCCNC(=O)NCCCC(C)Nc2cc(OC)cc3cccnc23)c2ncccc2c1 (centres undefined)', 'µg/mL', '>', 100);

---

Test system: Mycobacterium avium complex sp.
Test: Antimycobacterial activity against Mycobacterium avium complex CIT19/06 clinical isolate after 5 days by Alamar Blue assay
Assay type: functional
Settings: CIT19/06, 120 h
In this section, each of the compounds is paired with its reported MIC.
assay readout: MIC (µg/mL)

INSERT INTO measurements (compound, unit_spec, observed_result) VALUES
  ('COc1cc(NC(C)CCCNC(=O)NNC(=O)Nc2ccc(C(F)(F)F)cc2)c2ncccc2c1 (stereo not given)', 'µg/mL', 128),
  ('COc1cc(NC(C)CCCNC(=O)Nc2ccc(Cl)cc2)c2ncccc2c1 (stereo not given)', 'µg/mL', 64),
  ('COc1cc(NC(C)CCCNC(=O)Nc2ccc(C(F)(F)F)cc2)c2ncccc2c1 (stereo not given)', 'µg/mL', 16),
  ('COc1cc(NC(C)CCCNC(=O)NCCO)c2ncccc2c1 (stereo not given)', 'µg/mL', 64),
  ('COc1cc(NC(C)CCCNC(=O)NNC(=O)Nc2cccc(O)c2)c2ncccc2c1 (stereo not given)', 'µg/mL', 256),
  ('COc1cc(NC(C)CCCNC(=O)NNC(=O)NCCCCCO)c2ncccc2c1 (stereo not given)', 'µg/mL', 256),
  ('COc1cc(NC(C)CCCNC(=O)NNC(=O)Nc2ccc(Cl)c(C(F)(F)F)c2)c2ncccc2c1 (stereo not given)', 'µg/mL', 2),
  ('COc1cc(NC(C)CCCNC(=O)NNC(=O)Nc2cccc(C(F)(F)F)c2)c2ncccc2c1 (stereo not given)', 'µg/mL', 128),
  ('COc1cc(NC(C)CCCNC(=O)/C=C/c2ccccc2F)c2ncccc2c1 (stereo not given)', 'µg/mL', 128),
  ('COc1cc(NC(C)CCCNC(=O)Nc2cccc(O)c2)c2ncccc2c1 (stereo not given)', 'µg/mL', 16);

---

Listed below: MIC values for each entry.
System: Mycobacterium avium complex sp.
Experiment: Antimycobacterial activity against Mycobacterium avium complex CIT19/06 clinical isolate after 5 days by Alamar Blue assay
Format: functional
Details: CIT19/06, 120 h
assay readout: MIC (µg/mL)

INSERT INTO results (compound, tested_system, assay_readout, prefix_operator, observed_result) VALUES
  ('COc1ccc(C(=NNC(=O)NNC(=O)NCCCC(C)Nc2cc(OC)cc3cccnc23)c2ccc(OC)cc2)cc1 (centres undefined)', 'Mycobacterium avium complex sp.', 'MIC', '=', 16),
  ('COc1cc(NC(C)CCCNC(=O)/C=C/c2ccc(OC)c(OC)c2)c2ncccc2c1 (centres undefined)', 'Mycobacterium avium complex sp.', 'MIC', '=', 256),
  ('CO[C@H]1/C=C/O[C@@]2(C)Oc3c(C)c(O)c4c(O)c(c(/C=N/N5CCN(C)CC5)c(O)c4c3C2=O)NC(=O)/C(C)=C\C=C\[C@H](C)[C@H](O)[C@@H](C)[C@@H](O)[C@@H](C)[C@H](OC(C)=O)[C@@H]1C', 'Mycobacterium avium complex sp.', 'MIC', '=', 30),
  ('COc1cc(NC(C)CCCNC(=O)Nc2cccc(F)c2)c2ncccc2c1 (centres undefined)', 'Mycobacterium avium complex sp.', 'MIC', '=', 8),
  ('COc1cc(NC(C)CCCNC(=O)Nc2cccc(Cl)c2)c2ncccc2c1 (centres undefined)', 'Mycobacterium avium complex sp.', 'MIC', '=', 16),
  ('COc1cc(NC(C)CCCNC(=O)Nc2ccc(Cl)c(C(F)(F)F)c2)c2ncccc2c1 (centres undefined)', 'Mycobacterium avium complex sp.', 'MIC', '=', 16),
  ('NNC(=O)c1ccncc1', 'Mycobacterium avium complex sp.', 'MIC', '>', 256),
  ('COc1cc(NC(C)CCCNC(=O)NNC(=O)Nc2cccc(F)c2)c2ncccc2c1 (centres undefined)', 'Mycobacterium avium complex sp.', 'MIC', '=', 256),
  ('COc1cc(NC(C)CCCNC(=O)NNC(=O)NCCc2ccccc2)c2ncccc2c1 (centres undefined)', 'Mycobacterium avium complex sp.', 'MIC', '=', 256);

---

System: Mycobacterium avium complex sp.
Test: Antimycobacterial activity against Mycobacterium avium complex CIT19/06 clinical isolate after 5 days by Alamar Blue assay
Assay type: functional
Conditions: CIT19/06, 120 h
As shown below, each of these molecules has a reported MIC value.
assay readout: MIC

INSERT INTO assay_data (molecule, observed_result) VALUES
  ('COc1cc(NC(C)CCCNC(=O)Nc2ccc(F)cc2)c2ncccc2c1 (stereo not given)', '16 µg/mL'),
  ('COc1cc(NC(C)CCCNC(=O)NCc2ccncc2)c2ncccc2c1 (stereo not given)', '32 µg/mL'),
  ('COc1cc(NC(C)CCCNC(=O)NNC(=O)NCc2ccccc2)c2ncccc2c1 (stereo not given)', '256 µg/mL'),
  ('COc1cc(NC(C)CCCNC(=O)NNC(=O)Nc2cccc(Cl)c2)c2ncccc2c1 (stereo not given)', '256 µg/mL'),
  ('COc1ccc(/C(=N/NC(=O)NNC(=O)NCCCC(C)Nc2cc(OC)cc3cccnc23)c2ccccc2)cc1 (stereo not given)', '16 µg/mL');

---

List of MIC values.
System: Mycobacterium avium complex sp.
Assay: Antimycobacterial activity against Mycobacterium avium complex CIT19/06 clinical isolate after 5 days by Alamar Blue assay
Format: functional
Conditions: CIT19/06, 120 h
assay readout: MIC (µg/mL)

INSERT INTO assay_data (compound, unit_spec, observed_result) VALUES
  ('COc1ccc(C(=NNC(=O)NCCCC(C)Nc2cc(OC)cc3cccnc23)c2ccc(OC)cc2)cc1 (stereo not given)', 'µg/mL', 256),
  ('COc1cc(NC(C)CCCNC(=O)NN)c2ncccc2c1 (stereo not given)', 'µg/mL', 32),
  ('COc1cc(NC(C)CCCNC(=O)NNC(=O)Nc2cccc(Br)c2)c2ncccc2c1 (stereo not given)', 'µg/mL', 256),
  ('COc1cc(NC(C)CCCNC(=O)/C=C/c2ccc(C(F)(F)F)cc2)c2ncccc2c1 (stereo not given)', 'µg/mL', 128),
  ('COc1ccc(/C(=N/NC(=O)NCCCC(C)Nc2cc(OC)cc3cccnc23)c2ccccc2)cc1 (stereo not given)', 'µg/mL', 256);
